- Assay remarks: Cytotoxicity against mouse J774.2 cells assessed as reduction in cell viability by MTT assay
- Assay type: toxicity, cell-based
The molecules listed here are annotated with their CC50.
# unit: µM | format: bare number

# annotated cases, reported CC50 shown
chemical_structure=CCCCOC(=O)c1ccc2c(c1)[n+]([O-])c(C(=O)Nc1ccc(Cl)cc1)c(C)[n+]2[O-] observed=50.3
chemical_structure=CCCCOC(=O)c1ccc2c(c1)[n+]([O-])c(C(C)=O)c(C)[n+]2[O-] observed=58.4
chemical_structure=CCCCOC(=O)c1ccc2c(c1)[n+]([O-])c(C(=O)OC)c(C)[n+]2[O-] observed=46.2

Problem: Please report the recorded CC50 for `CC(C)COC(=O)c1ccc2c(c1)[n+]([O-])c(C(=O)c1cccs1)c(C(F)(F)F)[n+]2[O-]` .
Solution: 43.9

Problem: Continue with `CCCCOC(=O)c1ccc2c(c1)[n+]([O-])c(C(=O)Nc1ccccc1)c(-c1ccccc1)[n+]2[O-]`
Solution: 44.1

Problem: Continue with `CCCCOC(=O)c1ccc2c(c1)[n+]([O-])c(C(=O)c1ccccc1)c(C)[n+]2[O-]`
Solution: 17.7

----------
- Assay remarks: Selectivity index, ratio of CC50 for cytotoxicity against mouse J774.2 cell to MIC for antibacterial activity against Mycobacterium tuberculosis H37Rv
- Type: toxicity
- Run conditions: J774.2 cells, read-out: Selectivity Index
Observation type: selectivity ratio

# annotated cases, reported selectivity ratio shown
chemical_structure=CC(=O)c1c(C)[n+]([O-])c2ccc(C(=O)OCC(C)C)cc2[n+]1[O-] observed=10.2
chemical_structure=Cc1c(C(=O)Nc2ccccc2)[n+]([O-])c2cc(C(=O)OCC(C)C)ccc2[n+]1[O-] observed=10.2

Okay, now this compound:
Problem: Please report the recorded selectivity ratio for `CCCCOC(=O)c1ccc2c(c1)[n+]([O-])c(C(C)=O)c(C)[n+]2[O-]` .
Solution: 10.2

----------
- System: Mycobacterium tuberculosis
- Assay remarks: Antitubercular activity against Mycobacterium tuberculosis H37Rv assessed as reduction in microbial growth incubated for 10 days under anaerobic condition followed by 28 hrs incubation with aerobic condition further incubated 7 days at 5 % CO2 condition by low-oxygen recovery assay
- Type: functional
- Run conditions: time 436 hrs
Observation type: MIC

# annotated cases, reported MIC shown
chemical_structure=CCCCOC(=O)c1ccc2c(c1)[n+]([O-])c(C(=O)Nc1ccc(Cl)cc1)c(C)[n+]2[O-] observation_type=MIC observed="> 117 µM"
chemical_structure=Cc1ccc(NC(=O)c2c(C)[n+]([O-])c3cc(C(=O)OCC(C)C)ccc3[n+]2[O-])c(C)c1 observation_type=MIC observed="> 118 µM"

Okay, now this compound:
Problem: Please report the recorded MIC for `CCCCOC(=O)c1ccc2c(c1)[n+]([O-])c(C(=O)Nc1ccc(C)cc1C)c(C)[n+]2[O-]` .
Solution: > 118 µM
